- System: MDA-MB-468 breast
- TEST_SUMMARY: NCI tumour cell line growth inhibition, 48 h
READOUT_KIND: GI50

# input Quick one: GI50 for `CN1CCN(Cc2ccc(NC(=O)c3cncc(C#Cc4c(N)ncc5c(F)cccc45)c3)cc2C(F)(F)F)CC1` ?
# output 872 nM

# input Quick one: GI50 for `COC1=CC(c2ccc[nH]2)=N/C1=C\c1[nH]c(C)c(C(=O)Oc2ccccc2)c1C` ?
# output 368 nM

# input Quick one: GI50 for COc1ccc2nc3cc(Cl)ccc3c(NCCNCC(O)CO)c2c1 (configuration not stated) ?
# output 975 nM

# input Quick one: GI50 for CCN(CC)c1ccc2c(c1)Oc1nc(N)c(C#N)c(N)c1C2Sc1ccc(F)cc1 (configuration not stated) ?
# output 1610 nM

# input Quick one: GI50 for `NS(=O)(=O)c1ccc(N=Nc2c(O)[nH]c3ccc(C(=O)NCCc4cnc[nH]4)cc23)cc1` ?
# output > 25000 nM

# input Quick one: GI50 for `O=C(COc1cccc(/C=C2\COc3ccccc3C2=O)c1)c1ccccc1` ?
# output 1780 nM

# input Quick one: GI50 for `c1ccc(COCC[P+](c2ccccc2)(c2ccccc2)c2ccccc2)cc1` ?
# output 239 nM

# input Quick one: GI50 for COc1cc(N2CCN(C(C)C)CC2)ccc1Nc1nc(Nc2ccc(F)cc2C(=O)NCC(O)CO)c2cc[nH]c2n1 (configuration not stated) ?
# output 4460 nM

# input Quick one: GI50 for `NC(=O)c1cc(I)ccc1NC(=O)/C=C/c1ccccc1Cl` ?
# output 374 nM

# input Quick one: GI50 for `O=C(CN1CCN(CCN2C(=O)c3cccc4cccc(c34)C2=O)CC1)Nc1ccc2ncsc2c1` ?
# output 4790 nM

# input Quick one: GI50 for Clc1ccc(C2CC(c3cccc(Nc4ccncc4)c3)=NN2c2ccccc2)cc1 (configuration not stated) ?
# output 1510 nM

# input Quick one: GI50 for `FC(F)(F)c1cc(Br)cc(-c2cc(-c3ccc4c(c3)OCCO4)[nH]n2)c1` ?
# output 345 nM

* * *

- System: MDA-MB-468 breast
- TEST_SUMMARY: NCI tumour cell line growth inhibition, 48 h
I'd be grateful if you could share measured TGI for these entries.
Numbers only; they are read as µM.

# input Quick one: TGI for `O=C(Nc1ccc(Oc2ccc(NC(=O)Nc3ccccc3Cl)cc2)cc1)Nc1ccccc1Cl` ?
# output 49.6

# input Quick one: TGI for `CCCCCCCCCCCCNC(=O)N[C@H](C(=O)N[C@H]1/C=C/CCNC(=O)/C=C/[C@H](C)NC1=O)C(C)C` ?
# output 0.218

# input Quick one: TGI for `O=C(COc1cccc(/C=C2\COc3ccccc3C2=O)c1)c1ccccc1` ?
# output 4.6

# input Quick one: TGI for `COc1cc(CNC(=O)/C=C/c2ccc3c(c2)OCO3)ccc1OCc1cn(-c2cccc(C(F)(F)F)c2)nn1` ?
# output 22.8

# input Quick one: TGI for `CCC1=C[C@@H]2CN(C1)Cc1c([nH]c3ccccc13)[C@@](C(=O)OC)(c1cc3c(cc1OC)N(C)[C@H]1[C@@](O)(C(=O)OC)[C@H](OC(C)=O)[C@]4(CC)C=CCN5CC[C@]31[C@@H]54)C2` ?
# output 17

# input Quick one: TGI for `CS(=O)(=O)O[C@H]1C(=O)N(c2cc3c4ccccc4ccc3c3ccccc23)[C@@H]1c1ccccn1` ?
# output 5.27

Reference for the values: PubChem BioAssay (NCI)
